Tested on: HS 578T breast
Experiment: NCI tumour cell line growth inhibition, 48 h
QUANTITY_KIND: GI50

COc1ccc2c(c1)oc1c(C)c3c(c(C)c12)C(=O)N(N)C3=O; 32.6 µM
O=C1C(Cl)=C(Nc2cccc(O)c2)C(=O)N1CCc1ccccc1; 17.5 µM
COc1cc(C(=O)c2c(-c3ccccc3)oc3c(OC)cccc23)cc(OC)c1O; 0.405 µM
O=C(NC(=S)Nc1ccccn1)c1ccccc1; 71.5 µM
CCNCCCn1c2c(c3ccc(F)cc3c1=O)C(=O)c1cc(OC)cnc1-2; 1.62 µM
C#C[C@]1(O)CC[C@H]2[C@@H]3CC=C4c5nc(Nc6ncccn6)sc5CC[C@]4(C)[C@H]3CC[C@@]21C; 1.25 µM
COc1cc(/C=C/C(=O)c2ccc(Nc3nc(Nc4ccc(F)cc4)nc(Nc4ccc(Cl)cc4)n3)cc2)cc(OC)c1OC; 2.75 µM
Cn1c(=O)n(CCCO)c(=O)c2c1nc(Oc1cccc(OC(F)(F)F)c1)n2Cc1ccc(Cl)cc1; 16.3 µM
[2H]C([2H])([2H])Oc1cc(F)ccc1/C=C/C(=O)/C=C(/C=C/c1ccc(F)cc1OC([2H])([2H])[2H])OB(F)F; 5.67 µM

====

# GI50 annotations
Test system: SN12C renal
Experiment: NCI tumour cell line growth inhibition, 48 h
QUANTITY_KIND: GI50

CNC(=O)C(CCc1ccccc1)NC(=O)C(CC(=O)NO)CC(C)C (centres undefined); > 25 µM
CN(C)c1ccc(Nc2ncnc3ccccc23)cc1; > 100 µM
CCOC(=O)/C=C/C1=C(c2ccsc2)c2ccc(OC)cc2CC1; 0.837 µM
CC1OC(OC2C(O)C(OCCc3ccc(O)c(O)c3)OC(CO)C2OC(=O)/C=C/c2ccc(O)c(O)c2)C(O)C(O)C1OC1OCC(O)(CO)C1O (centres undefined); > 100 µM
C[CH2][Sn]([CH2]C)([O]C(=O)c1cccc(OC)c1)[O][Sn]([CH2]C)([CH2]C)[O]C(=O)c1cccc(OC)c1; 19.9 µM
Oc1ccc(Nc2nc3ccccc3c3occc23)cc1; 12.2 µM
C=C1C(=O)O[C@H]2[C@H]1CC/C(CNC(=O)c1cccc3ccccc13)=C\CC[C@@]1(C)O[C@@H]21; 1.96 µM
CN1CCCC1c1cccnc1.O=C(O)c1ccccc1O.O=C([O-])c1ccccc1[OH2+].O=C([O-])c1ccccc1[OH2+].O=C([O-])c1ccccc1[OH2+].[Cu+2] (centres undefined); > 100 µM
COc1cc(CN[C@H]2CCc3cc(OC)c(OC)c(OC)c3-c3ccc(SC)c(=O)cc32)cc(OC)c1; 0.0623 µM

====

Listing of entries alongside the reported TGI.
Tested on: T-47D breast
Assay: NCI tumour cell line growth inhibition, 48 h
QUANTITY_KIND: TGI

Nc1n[n+](=O)c2ccccc2n1O; > 100 µM
O=C1CSC(c2ccccc2O)N1c1ccc(-c2ccc(-n3c(-c4ccccc4)nc4ccccc4c3=O)cc2)cc1 (centres undefined); > 100 µM
CN(/N=C(\C(=O)O)c1ccccc1)C1=NCCCCN1; > 100 µM
COc1cc(/C=C/C(=O)Nc2ccc3c(c2)/C(=C\c2cccn2C)C(=O)N3)cc(OC)c1OC; 13.9 µM

====

System: SF-295 CNS
Assay: NCI tumour cell line growth inhibition, 48 h; in the data active = GI50 below about 0.43 µM; inactive = the rest
Labels: Yes for active, No for inactive

CNC(=O)C(CCc1ccccc1)NC(=O)C(CC(=O)NO)CC(C)C (centres undefined); No
O=C(Nc1ccc(-n2cc(-c3ccncc3)c(-c3ccc(O)c(Cl)c3)n2)cc1)c1cc(C(F)(F)F)cc(C(F)(F)F)c1; No
C=C1CC2(OC1=O)C(=O)N(C)c1ccc(I)cc12 (centres undefined); No
C=CCn1c(SCC(=O)Nc2ccc(C(=O)/C=C/c3cc(OC)c(OC)c(OC)c3)cc2)nnc1-c1ccc(Cl)cc1; No
Cn1c(=O)n(CCCO)c(=O)c2c1nc(Oc1cccc(OC(F)(F)F)c1)n2Cc1ccc(Cl)cc1; No
C[CH2][Sn]([CH2]C)([O]C(=O)c1cccc(OC)c1)[O][Sn]([CH2]C)([CH2]C)[O]C(=O)c1cccc(OC)c1; No
CCCSc1ccc2nc(NC(=O)OC)[nH]c2c1; Yes
CC(=O)[CH-]C(=O)c1ccccc1.CC(=O)[CH-]C(=O)c1ccccc1.CCN(CC)CC[O-].CCN(CC)CC[O-].Cl.[Hf+4]; No
CCOC(=O)Cc1csc(NC(=O)COC(=O)c2ccc(N)cc2)n1; No
